- subject-of-test: T1, 4H3627-AA
- T1 chain: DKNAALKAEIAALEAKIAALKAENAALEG
- protocol-notes: two-hybrid library CCmax;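 further: natural log of median RNA to DNA barcode read ratio; higher means stronger binding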
- condition-notes: mean of both orientations
outcome-measure: interaction score

Consider the following illustrative entries.
> print(dat)
                                     binder  value.measured
1  DEIAALEAENAALKAKIAALKAEIAALKG [4H234-AA]          -0.624
2  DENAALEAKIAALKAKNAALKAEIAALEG [4H1401-AA]           -1.38

A = DKIAALKAKIAALKAEIAALEAENAALEG [4H2883-AA]
B = DKIAALKAKIAALEAENAALEAKIAALEG [4H2837-AA]
Ask: Return label of the item with the larger interaction score. Candidates: A , B . Reply briefly: the label of your chosen item.
Reply: A

Where do the numbers come from? From paper PMC10397247.
